- target.desc: T1, TNFR1 (Homo sapiens, UniProt P19438)
- T1 chain: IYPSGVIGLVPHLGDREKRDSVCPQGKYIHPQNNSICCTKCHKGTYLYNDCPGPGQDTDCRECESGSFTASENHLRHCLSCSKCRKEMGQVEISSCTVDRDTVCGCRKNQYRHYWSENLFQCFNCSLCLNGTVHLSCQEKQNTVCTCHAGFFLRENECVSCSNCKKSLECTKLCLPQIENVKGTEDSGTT
- assay.procedure: yeast display SC50
Measured apparent Kd (screen) of individual entries
Kindly provide the numeric value in nM only, without the unit symbol.

input: May I ask what apparent Kd (screen) has been recorded for K35E (designed binder) MTLQELLREEALRRAEAEAFRYALELLAEKFPEQEEYLLDLAEEIESQIRSLSGVDVEDVRKFLDKEWAWVKELLAEHPAELAEVEAARAARLAELRAEVEAKVAA ?
output: 1.16

input: May I ask what apparent Kd (screen) has been recorded for T2W (designed binder) MWLQELLREEALRRAEAEAFRYALELLAEKFPEQKEYLLDLAEEIESQIRSLSGVDVEDVRKFLDKEWAWVKELLAEHPAELAEVEAARAARLAELRAEVEAKVAA ?
output: 1.16
